Biological target: human GAL3 receptor (Homo sapiens)
Construct: expressed in transfected cells
Sequence (O60755 whole entry): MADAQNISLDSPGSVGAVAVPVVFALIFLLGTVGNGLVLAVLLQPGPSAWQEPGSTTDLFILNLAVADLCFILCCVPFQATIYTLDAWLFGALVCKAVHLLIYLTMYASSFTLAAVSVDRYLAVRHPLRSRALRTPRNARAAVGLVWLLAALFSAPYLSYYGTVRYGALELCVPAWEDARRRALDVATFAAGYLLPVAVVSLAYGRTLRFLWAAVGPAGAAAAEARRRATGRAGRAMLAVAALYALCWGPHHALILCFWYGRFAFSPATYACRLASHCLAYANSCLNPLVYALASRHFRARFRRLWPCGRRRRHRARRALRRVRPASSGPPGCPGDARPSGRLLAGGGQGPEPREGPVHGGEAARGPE
Assay: Radioligand binding at cloned human GAL3 receptor
Settings: indolones, cloned human receptor; read-out: Ki GalR3
pKi: −log10 of the molar value.
Output met for pKi not less than 7; output not met otherwise.

Prompt: Can `Cc1noc(C)c1CN1C(=O)/C(=N\c2cc(Cl)cc(Cl)c2)c2ccccc21` be said to have pKi at or above 7?
Completion: not met

Prompt: Check `O=C1/C(=N\c2ccc(F)c(F)c2)c2ccccc2N1c1ccccc1` too.
Completion: met

Prompt: Another compound to look at: `O=C1/C(=N\c2cccc(C(F)(F)F)c2)c2ccccc2N1Cc1ccccn1`
Completion: not met

Prompt: Similarly, `O=C1/C(=N\c2ccc3ncccc3c2)c2ccccc2N1c1ccsc1` ?
Completion: not met

Prompt: Ok, now `O=C1/C(=N\c2ccc(Cl)cc2)c2ccccc2N1c1ccsc1`
Completion: met

Prompt: Can you handle `O=C1/C(=N\c2cccc(C(F)(F)F)c2)c2ccccc2N1c1ccc(-c2ccccc2)cc1` next?
Completion: not met

Prompt: // query: `O=C1/C(=N\c2ccc3c(c2)OC(F)(F)O3)c2ccccc2N1c1ccccc1`
Completion: met

Prompt: Next record, please: `CCOc1ccc(N=C2C(=O)N(c3ccccc3)c3ccccc32)cc1`
Completion: not met

Prompt: And for `COc1ccccc1N=C1C(=O)N(c2ccccc2)c2ccccc21` ?
Completion: not met

Prompt: Entry to check: `O=C1C(=Nc2ccc(C(F)(F)F)cc2)c2ccccc2N1c1ccccc1`
Completion: met

Prompt: Could you do the same for `O=C1/C(=N\c2ccc(F)c(F)c2)c2ccccc2N1Cc1ccccn1` , please?
Completion: not met

Prompt: Try the compound `O=C1/C(=N\c2ccc(Cl)c(Cl)c2)c2ccccc2N1c1cc(Cl)cc(Cl)c1`
Completion: met

Prompt: Now consider `O=C1/C(=N\c2ccc(Cl)nc2)c2ccccc2N1c1ccsc1` and answer again.
Completion: not met

Prompt: Again, but for `O=C1/C(=N\c2cc(F)cc(F)c2)c2ccccc2N1c1ccsc1`
Completion: met

Prompt: Now the compound `O=C1/C(=N\c2cccc(C(F)(F)F)c2)c2ccccc2N1C1CCOCC1`
Completion: not met

Prompt: Cool, now `COc1ccc2c(c1)N(c1ccccc1)C(=O)/C2=N\c1cccc(C(F)(F)F)c1`
Completion: not met

Prompt: Try the compound `COc1ccc(N=C2C(=O)N(c3ccccc3)c3ccccc32)cc1`
Completion: not met

Prompt: Similarly, `O=C1/C(=N\c2ccc(Cl)c(Cl)c2)c2ccccc2N1c1cccc(C(F)(F)F)c1` ?
Completion: met

Prompt: Now consider Cc1nc2cc(N=C3C(=O)N(c4ccccc4)c4ccccc43)ccc2s1 (mixture of isomers) and answer again.
Completion: not met

Prompt: Again, but for `O=C1/C(=N\c2cccc(Cl)c2)c2ccccc2N1c1ccsc1`
Completion: met

Prompt: How about `O=C1/C(=N\c2ccc3ncsc3c2)c2ccccc2N1c1ccccc1` ?
Completion: not met

Prompt: Next entry: `Cc1cccc(N=C2C(=O)N(c3ccccc3)c3ccccc32)c1`
Completion: not met

Prompt: Would you kindly repeat that for `O=C1/C(=N\c2cccc(Br)c2)c2ccccc2N1c1ccccc1` ?
Completion: met

Prompt: Do the same for `O=C1C(=Nc2ccc(Cl)cc2)c2ccccc2N1c1ccccc1` please
Completion: met

Prompt: Same question for `O=C1C(=Nc2ccc(Cl)cc2)c2ccccc2N1c1ccsc1` please.
Completion: met

Prompt: Another compound: `O=C1/C(=N\c2ccc(F)c(F)c2)c2ccccc2N1Cc1cccnc1`
Completion: not met

Prompt: Check `O=C1/C(=N\c2cccc3ncccc23)c2ccccc2N1c1ccccc1` too.
Completion: not met

Prompt: What about this compound? `O=C1C(=Nc2ccc(Br)cc2)c2ccccc2N1c1ccccc1`
Completion: met
